Target: T1, HLA-B*44:05 (human)
T1 construct: also called peptide-receptive MHC class I molecule
Experiment: UV peptide exchange, anti-b2m ELISA
METRIC: peptide exchange yield

Query block: Fill blank: measured peptide exchange yield of the binder MEAELVRRI is ____.
Result block: 50 to 75%

Query block: Item EGEDAHLTQY has what recorded peptide exchange yield?
Result block: 20 to 50%

Query block: Dear colleague, I am looking for the recorded peptide exchange yield of the following binder: AEDNMVTSY
Result block: 50 to 75%

Query block: Given the binder EEAMKRLSY , what is its reported peptide exchange yield?
Result block: 20 to 50%

Query block: What measured peptide exchange yield goes with QEIDRGQYI ?
Result block: > 75%

Query block: Reported peptide exchange yield for SEVPVDSHY : what is it?
Result block: 50 to 75%

Query block: Using the record for KEAPNIVTL , report its peptide exchange yield.
Result block: > 75%

Query block: Give the measured peptide exchange yield of GEQPPEGQW .
Result block: 50 to 75%

Query block: Which value of peptide exchange yield has been reported for KEVASNSEL in the records?
Result block: 50 to 75%

Query block: Item TEHSGIYSC has what recorded peptide exchange yield?
Result block: 20 to 50%

Query block: Give the measured peptide exchange yield of AEEKAAVTSL .
Result block: 50 to 75%

Query block: Recorded peptide exchange yield for SEHLFGTSY , please?
Result block: 50 to 75%

Query block: Please look up its peptide exchange yield: RLNEHPSNNW
Result block: 20 to 50%

Query block: Requested field: peptide exchange yield. Item: KEDNPSGHTY
Result block: 50 to 75%

Query block: // returns reported peptide exchange yield for input RELIKAIGL
Result block: 50 to 75%

Query block: Quick one: peptide exchange yield for DEVRFFKGNKY ?
Result block: 20 to 50%

Query block: Entry under review: EEVLLANALW . Reported peptide exchange yield?
Result block: 50 to 75%

Query block: # query: peptide exchange yield of entry KESQLPTVMDF
Result block: 50 to 75%

Query block: Given YEQLLKVVTW , state its recorded peptide exchange yield.
Result block: > 75%

Query block: So what's the measured peptide exchange yield for this one? SEYVHSSF
Result block: 20 to 50%

Query block: Entry FETEQALRL : reported peptide exchange yield = ?
Result block: 50 to 75%

Query block: Item under review: AGSPVMRKW . Reported peptide exchange yield?
Result block: 20 to 50%

Query block: Which peptide exchange yield is listed for AEDEDGKIVGY ?
Result block: 20 to 50%

Query block: Which peptide exchange yield reading was recorded for the binder GEPRKLLTQDW ?
Result block: 50 to 75%

Query block: Recorded peptide exchange yield of DEDLFHKL , please.
Result block: 20 to 50%
